Data provenance: ChEMBL document CHEMBL3046393

Tested on: Entamoeba histolytica
Assay: Antiamoebic activity against trophozoite stage of Entamoeba histolytica HM-1:IMSS assessed as parasite growth inhibition after 72 hr by microdilution assay
Type: functional, organism-based
Response field label: string, one of class 1 (IC50 strictly below 4 µM) or class 0.

These solved cases illustrate the format of a correct answer.
CCCNC(=S)N1CCC(c2ccccc2)=N1 = class 0
CC(C)CNC(=S)N1CCC(c2cccc(Br)c2)=N1 = class 0
CCCN(CCC)C(=S)N1CCC(c2ccccc2)=N1 = class 1

Prompt: Hello, I'm reviewing records and need to know if IC50 of `S=C(NC1CCCC1)N1CCC(c2cccc(Cl)c2)=N1` is below 4 µM. Could you check?
Completion: class 1

Prompt: Hello, I'm reviewing records and need to know if IC50 of `S=C(NC1CCCCCCC1)N1CCC(c2cccc(Br)c2)=N1` is below 4 µM. Could you check?
Completion: class 1

Prompt: Hello, I'm reviewing records and need to know if IC50 of `CCCCN(C)C(=S)N1CCC(c2ccccc2)=N1` is below 4 µM. Could you check?
Completion: class 0
